target: Menin MLL 4-43 (Homo sapiens, UniProt O00255); assay: Fluorescence polarization (FP) competition assay of the menin-MLL interaction; details: fluorescence polarization competition with fluorescein-labeled MLL peptide
Sequence (O00255 whole entry): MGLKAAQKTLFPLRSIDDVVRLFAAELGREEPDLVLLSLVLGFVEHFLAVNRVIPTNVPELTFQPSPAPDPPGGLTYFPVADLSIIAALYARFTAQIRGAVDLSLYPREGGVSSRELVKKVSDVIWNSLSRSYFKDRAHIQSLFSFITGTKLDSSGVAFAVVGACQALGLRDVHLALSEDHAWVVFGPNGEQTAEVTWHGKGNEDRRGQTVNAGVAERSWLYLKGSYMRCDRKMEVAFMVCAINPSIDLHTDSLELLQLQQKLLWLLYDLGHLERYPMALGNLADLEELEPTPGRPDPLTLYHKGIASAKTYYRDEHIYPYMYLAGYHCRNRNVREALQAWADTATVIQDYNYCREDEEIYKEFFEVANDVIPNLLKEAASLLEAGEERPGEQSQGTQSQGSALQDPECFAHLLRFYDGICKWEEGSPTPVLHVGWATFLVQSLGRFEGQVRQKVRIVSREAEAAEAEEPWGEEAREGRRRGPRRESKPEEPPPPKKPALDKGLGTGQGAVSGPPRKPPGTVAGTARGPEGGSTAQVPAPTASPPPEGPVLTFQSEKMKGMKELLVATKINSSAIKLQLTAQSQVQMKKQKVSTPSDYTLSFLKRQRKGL
endpoint: IC50

Value of IC50 reported for the compound CNc1nc(N2CCC3CN(Cc4ccc5[nH]c(C#N)cc5c4C)CC3C2)c2cc(CC(F)(F)F)sc2n1 (stereo not shown) is > 1000 nM

Value of IC50 reported for the compound Cc1nc(N2CCC3(CCN(Cc4ccc5c(cc(C#N)n5C[C@@H]5CNC(=O)CO5)c4C)C3)C2)c2cc(CC(F)(F)F)sc2n1 (stereo partly shown) is < 50 nM

Value of IC50 reported for the compound CNc1nc(N2CC3CN(Cc4ccc(C#N)cc4)CC3C2)c2cc(CC(F)(F)F)sc2n1 (stereo not shown) is > 1000 nM

Value of IC50 reported for the compound CNc1nc(N2CC3CCN(Cc4ccc5[nH]c(=O)[nH]c5c4)C3C2)c2cc(CC(F)(F)F)sc2n1 (stereo not shown) is > 1000 nM

###

For each of the molecules below, state its pIC50.
biological target: Menin MLL 4-43 (Homo sapiens, UniProt O00255); assay: Fluorescence polarization (FP) competition assay of the menin-MLL interaction; format: binding; conditions: fluorescence polarization competition with fluorescein-labeled MLL peptide
pIC50: −log10 of the molar value.

Value of pIC50 reported for the molecule CNS(=O)(=O)N1CCN([C@@H](C)Cn2c(C#N)cc3c(C)c(CN4CCC5(CCN(c6nc(C)nc7sc(CC(F)(F)F)cc67)C5)C4)ccc32)CC1 (some centres unmarked) is 6.60 to 7.30

Value of pIC50 reported for the molecule CNc1nc(N2CC3CCN(CCc4ccc5[nH]ccc5c4)CC3C2)c2cc(CC(F)(F)F)sc2n1 (centres unmarked) is < 6.00

Value of pIC50 reported for the molecule CNc1nc(N2CCC3(CCN(Cc4ccc5c(cc(C#N)n5C[C@H](C)N5CCN(S(=O)(=O)NC)CC5)c4C)C3)C2)c2cc(CC(F)(F)F)sc2n1 (some centres unmarked) is > 7.30

Value of pIC50 reported for the molecule Cc1c(CN2CCC3(CCN(c4nc(N)nc5sc(CC(F)(F)F)cc45)C3)C2)ccc2[nH]c(C#N)cc12 (centres unmarked) is < 6.00

Value of pIC50 reported for the molecule CNS(=O)(=O)N1CCN([C@@H](C)Cn2c(C#N)cc3c(C)c(CN4CCC5(CCN(c6ncnc7sc(CC(F)(F)F)cc67)C5)C4)ccc32)CC1 (some centres unmarked) is > 7.30

Value of pIC50 reported for the molecule CCS(=O)(=O)Nc1ccc(CN2CCC3(CCN(c4nc(NC)nc5sc(CC(F)(F)F)cc45)C3)C2)cc1 (centres unmarked) is 6.60 to 7.30

Value of pIC50 reported for the molecule CNc1nc(N2CCC3(CCN(Cc4ccc5c(cc(C#N)n5CCN5CCN(S(=O)(=O)NC)CC5)c4C)C3)C2)c2cc(CC(F)(F)F)sc2n1 (centres unmarked) is 6.60 to 7.30

Value of pIC50 reported for the molecule Cc1nc(N2CCC3(CCN(Cc4ccc5c(cc(C#N)n5C[C@H](C)N5CCN(S(C)(=O)=O)CC5)c4C)C3)C2)c2cc(CC(F)(F)F)sc2n1 (some centres unmarked) [Compound 17] is > 7.30

Value of pIC50 reported for the molecule CNc1nc(N2CC3CCN(CCc4ccccc4)C3C2)c2cc(CC(F)(F)F)sc2n1 (centres unmarked) is < 6.00

Value of pIC50 reported for the molecule CNc1nc(N2CCC3(CCN(Cc4ccc5c(cc(C#N)n5CCN5CCC(S(C)(=O)=O)CC5)c4C)C3)C2)c2cc(CC(F)(F)F)sc2n1 (centres unmarked) is > 7.30

Value of pIC50 reported for the molecule CCC(=O)NC12CC(Cn3c(C#N)cc4c(C)c(CN5CCC6(CCN(c7nc(C)nc8sc(CC(F)(F)F)cc78)C6)C5)ccc43)(C1)C2 (centres unmarked) is 6.00 to 6.60

Value of pIC50 reported for the molecule CNS(=O)(=O)C1CCN([C@@H](C)Cn2c(C#N)cc3c(C)c(CN4CCC5(CCN(c6nc(C)nc7sc(CC(F)(F)F)cc67)C5)C4)ccc32)CC1 (some centres unmarked) is > 7.30

Value of pIC50 reported for the molecule CNc1nc(N2CCC3CN(Cc4ccccc4)CC3C2)c2cc(CC(F)(F)F)sc2n1 (centres unmarked) is 6.00 to 6.60

Value of pIC50 reported for the molecule CNc1nc(N2CC3CCN(Cc4ccc5[nH]c(C#N)cc5c4C)CC3C2)c2cc(CC(F)(F)F)sc2n1 (centres unmarked) is < 6.00

Value of pIC50 reported for the molecule CNc1nc(N2CC3CN(Cc4ccc5[nH]c(C#N)cc5c4C)CC3C2)c2cc(CC(F)(F)F)sc2n1 (centres unmarked) is 6.60 to 7.30

Value of pIC50 reported for the molecule CNc1nc(N2CC3CN(CCc4ccccc4)CC3C2)c2cc(CC(F)(F)F)sc2n1 (centres unmarked) is < 6.00

Value of pIC50 reported for the molecule CNc1nc(N2CC3CCN(Cc4ccc5[nH]c(C#N)cc5c4C)C3C2)c2cc(CC(F)(F)F)sc2n1 (centres unmarked) is < 6.00

Value of pIC50 reported for the molecule CNc1nc(N2CCC3(CCN(Cc4ccc5c(cc(C#N)n5C[C@H](C)N5CCC(S(C)(=O)=O)CC5)c4C)C3)C2)c2cc(CC(F)(F)F)sc2n1 (some centres unmarked) is > 7.30

Value of pIC50 reported for the molecule CNc1nc(N2CCC3CN(CCc4ccc5[nH]ccc5c4)CC3C2)c2cc(CC(F)(F)F)sc2n1 (centres unmarked) is 6.00 to 6.60

Value of pIC50 reported for the molecule CNc1nc(N2CCC3(CCN(C[C@H]4CC[C@H](NS(C)(=O)=O)CC4)C3)C2)c2cc(CC(F)(F)F)sc2n1 (some centres unmarked) is > 7.30
